- TARGET_SYSTEM: MAP4K4
- MEASUREMENT_CONDITIONS: ASO; note: test concentration or dose not given here
These antisense oligonucleotides have a phosphorothioate backbone; sugars and methylation of C are not fully specified.
Each record is given t if its reported remaining target (mRNA or protein) (fraction of control) is strictly below 0.4. Records at or above 0.4 are given f.

| PRIMARY_SEQUENCE | TARGET_SYSTEM | GROUP_LABEL |
| --- | --- | --- |
| CCATCCAAGTGACCAGTTTC | MAP4K4 | t |
| GACTGAGTCTGGCGGACGAT | MAP4K4 | f |
| AGAGGGCCGCTGCATGTAAT | MAP4K4 | t |
| GGTACGATCTATATGATCCT | MAP4K4 | f |
| CTTCCTCTTCATCCTCAGTG | MAP4K4 | t |
| AATAAAACCAACGGCATGTT | MAP4K4 | f |
| CCTGCCTGGCTATTCTGCTG | MAP4K4 | f |

* * *

- TARGET_SYSTEM: TRADD
- MEASUREMENT_CONDITIONS: ASO
These antisense oligonucleotides have a phosphorothioate backbone; sugars and methylation of C are not fully specified.
Parameter remaining target (mRNA or protein) (fraction of control): see the listing below.
PARAMETER_MEASURED: remaining target (mRNA or protein) (fraction of control)

| PRIMARY_SEQUENCE | QUALIFIER_SIGN | EXPERIMENTAL_VALUE |
| --- | --- | --- |
| TAGGCCAAGTGGAGTTTC | = | 0.58 |
| GGGCAGGTGGCGGCGGCG | = | 0.7 |
| CTCACCTCCTGGCCGCCT | = | 0.76 |
| CCACCTTGTCCAGCGAGG | = | 0.59 |
| CCCAGCAAGTCCTCTGCC | = | 0.75 |
| GTCCAGCGAGGACTCCAC | = | 0.36 |
| TCAGCCAGTTCTTCATCC | ≥ | 1 |
| GTGCGCGTAGGCATCCGA | ≥ | 1 |
| CGCAGCGCATCCTCCAGC | = | 0.99 |
| GAGGACTCCACAAACAGG | = | 0.93 |
| AGTTGCAGCGGCACCGAG | ≥ | 1 |
| CTTGCGCCATTTGAGACC | = | 0.7 |
| GATGCAACTCAAACAGCG | ≥ | 1 |
| TGCGGTGGATCTTCAGCA | ≥ | 1 |
| TGGGCTAGGATGCAACTC | = | 0.67 |
| CGATTCACTACAGGCTGA | = | 0.86 |
| AGCTGCCATCTCACCTCC | ≥ | 1 |
| TCCACAAACAGGTATGCG | ≥ | 1 |
| CAGCGCCCGGCAGCCTCG | ≥ | 1 |
| CCGAAGCGACCTCCCCGT | ≥ | 1 |
| GCCAGCAAAGCGTCCAGC | ≥ | 1 |
| CCCGCCGCTCTCTGCCAA | ≥ | 1 |
| TGCTCGTACAGTCCCTCG | ≥ | 1 |
| CCGACAGAGAGGGCACCG | ≥ | 1 |
| CCACGCTGAGTGTGAGCT | = | 0.68 |
| AAACTGTAAGGGCTGGCT | = | 0.91 |
| CAAGATTGATTCCTGTTT | = | 0.94 |
| AGATTTCGCAGCGCATCC | ≥ | 1 |
| CCCCGAGCCGCACTTCAG | = | 0.77 |
| CCCACCCCACACTCTATC | = | 0.47 |
| CTCTTCGTGCCCATTTTG | = | 0.89 |
| GCTGCCCACCCACTCTTC | ≥ | 1 |
| CCGTGTTATACTTTATTA | ≥ | 1 |
| TCAGGGTCCCGTGGATGG | ≥ | 1 |
| AAGGTGAGGCTGATCTCC | = | 0.72 |
